# credit: ChEMBL document CHEMBL3046310

system: Aspergillus clavatus; test: Antimicrobial activity against Aspergillus clavatus MTCC 1323 after 72 hr by serial broth dilution method; type: functional; details: MTCC 1323, 72 h

{"columns": ["compound", "MIC / µg/mL"],
 "data": [
  ["Cc1ccn2c(CN(C)C)c(-c3ccc(F)c(Cl)c3)nc2c1", 1000],
  ["Cc1ccn2c(CN(C)C)c(-c3ccc(F)cc3F)nc2c1", 100],
  ["Cc1ccn2c(CN(C)C)c(-c3ccccc3Br)nc2c1", 100],
  ["Cc1ccn2c(CN(C)C)c(-c3cccc(F)c3F)nc2c1", 250],
  ["Cc1ccn2c(CN(C)C)c(-c3ccc(O)cc3O)nc2c1", 1000],
  ["Cc1ccn2c(CN(C)C)c(-c3cccc(Cl)c3)nc2c1", 100],
  ["Cc1ccn2c(CN(C)C)c(-c3c(F)cccc3F)nc2c1", 500],
  ["Cc1ccn2c(CN(C)C)c(-c3ccc(O)c([N+](=O)[O-])c3)nc2c1", 1000],
  ["Cc1ccn2c(CN(C)C)c(-c3ccccc3O)nc2c1", 1000],
  ["COC1=CC(=O)C[C@@H](C)[C@]12Oc1c(Cl)c(OC)cc(OC)c1C2=O [GRISEOFULVIN]", 100],
  ["Cc1ccn2c(CN(C)C)c(-c3ccc([N+](=O)[O-])cc3Br)nc2c1", 500],
  ["Cc1ccn2c(CN(C)C)c(-c3cc([N+](=O)[O-])c(O)cc3O)nc2c1", 500],
  ["Cc1ccn2c(CN(C)C)c(-c3cccc(Br)c3F)nc2c1", 25]
]}
